# System tested: T1, Biotin-huCGRPaSA (human, not fully specified; biotin (position not given))
# T1 construct: exact construct ('aSA') not explained; also called Biotin CGRPaSA; full-length (1-37) CGRP
# T1 peptide: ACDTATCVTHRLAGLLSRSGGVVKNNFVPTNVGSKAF
# Test summary: ELISA, supernatant; relative to chimeric C245
Let's look at some binders and their measured Relative binding activity, %.
State just the number; it will be interpreted in %.

Recorded results for 4 binders are shown here.
{"Binder": "hu132 (antibody, V domains shown, 2B8 HC1-3/1A2 LC2-2) VH: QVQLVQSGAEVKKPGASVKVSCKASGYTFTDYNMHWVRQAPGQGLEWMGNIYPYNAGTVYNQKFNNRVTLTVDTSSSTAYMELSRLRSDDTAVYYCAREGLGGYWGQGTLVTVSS VL: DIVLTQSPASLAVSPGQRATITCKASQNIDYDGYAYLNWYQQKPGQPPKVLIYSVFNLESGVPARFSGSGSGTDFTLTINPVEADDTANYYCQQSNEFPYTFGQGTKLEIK", "Quantity name": "Relative binding activity, %", "Reported result": 108}
{"Binder": "hu97 (antibody, V domains shown, 2A2 HC-1/1F5 LC1-2) VH: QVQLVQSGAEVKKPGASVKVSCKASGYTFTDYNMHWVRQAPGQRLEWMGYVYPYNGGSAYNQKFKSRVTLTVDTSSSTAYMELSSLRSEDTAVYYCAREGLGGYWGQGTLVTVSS VL: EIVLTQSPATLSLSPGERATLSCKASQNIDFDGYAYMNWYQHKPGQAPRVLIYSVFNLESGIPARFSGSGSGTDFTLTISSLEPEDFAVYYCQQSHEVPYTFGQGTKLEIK", "Quantity name": "Relative binding activity, %", "Reported result": 82}
{"Binder": "hu90 (antibody, V domains shown, 1F5 HC-5/3H10 LC2-1) VH: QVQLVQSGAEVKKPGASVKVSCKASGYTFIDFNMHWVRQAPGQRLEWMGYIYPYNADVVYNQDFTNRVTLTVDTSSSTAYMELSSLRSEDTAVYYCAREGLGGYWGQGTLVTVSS VL: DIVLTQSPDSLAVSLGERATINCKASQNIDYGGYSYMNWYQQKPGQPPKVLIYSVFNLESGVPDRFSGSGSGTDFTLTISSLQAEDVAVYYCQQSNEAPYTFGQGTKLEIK", "Quantity name": "Relative binding activity, %", "Reported result": 102}
{"Binder": "hu78 (antibody, V domains shown, 1F5 HC-4/3H10 LC2-2) VH: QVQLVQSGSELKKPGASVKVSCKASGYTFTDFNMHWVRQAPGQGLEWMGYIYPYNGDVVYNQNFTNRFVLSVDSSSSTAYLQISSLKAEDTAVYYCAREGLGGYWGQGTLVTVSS VL: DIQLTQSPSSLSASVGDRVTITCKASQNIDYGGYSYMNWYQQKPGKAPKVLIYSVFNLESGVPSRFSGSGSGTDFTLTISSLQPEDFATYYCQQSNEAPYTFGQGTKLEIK", "Quantity name": "Relative binding activity, %", "Reported result": 64}

Now, please, on to the next binder.
QUERY: Quick one: give measured Relative binding activity, % for hu174 (antibody, V domains shown, 3E5 HC-3/1F5 LC1-1) VH: QVQLVQSGAEVKKPGASVKVSCKASGYTFTDYNMHWVRQAPGQGLEWMGYISPYNGGTAYNQKFKFRVTLTVDTSSSTAYMELSRLRSDDTVVYYCAREGLGGYWGQGTLVTVSS VL: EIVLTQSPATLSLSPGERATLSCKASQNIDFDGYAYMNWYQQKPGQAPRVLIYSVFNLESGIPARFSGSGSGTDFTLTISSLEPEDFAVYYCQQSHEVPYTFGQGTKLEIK
RESULT: 84

Where do these numbers come from? They come from patent US20260125454A1.
